Where do the numbers come from? From patent US6420532B1.

experimental target: T1, rat Y2a receptor (encoded by rs5a) (rat)
T1 chain: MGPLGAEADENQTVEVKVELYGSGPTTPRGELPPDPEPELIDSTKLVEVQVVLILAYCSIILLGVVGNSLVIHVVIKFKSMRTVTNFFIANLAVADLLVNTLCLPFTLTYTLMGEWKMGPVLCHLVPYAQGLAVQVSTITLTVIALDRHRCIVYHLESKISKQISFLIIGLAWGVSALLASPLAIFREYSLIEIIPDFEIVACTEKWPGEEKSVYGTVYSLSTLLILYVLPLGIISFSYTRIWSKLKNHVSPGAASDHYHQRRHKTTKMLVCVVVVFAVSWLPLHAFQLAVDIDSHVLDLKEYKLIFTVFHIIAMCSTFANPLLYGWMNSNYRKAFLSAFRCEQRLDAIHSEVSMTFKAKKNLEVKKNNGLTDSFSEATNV
procedure text: 125I-PYY displacement, COS-7 membranes, Ki from IC50
Where no end group is shown, it is not given here.
measurement type: pKi
Convention used: pKi is expressed as -log10 of the molar concentration.

Query string: Entry SPEELSRYYASLRHYLNLVTRQRY-NH2 (peptide, UniProt P68005 13-36, looked up, range 13-36; also called PYY13-36, porcine) [porcine PYY13-36] : reported pKi = ?
Result string: 8.82
